target or test system: K-Ras^G12C : hSOS1 interaction (Homo sapiens)
experimental protocol: Biochemical assay 1: K-Ras^G12C interaction assay with hSOS1 (HTRF)
Type: binding
assay setup: E-notation values; unit inferred; read-out: Assay 1 (KRAS-SOS interaction) IC50
pIC50: −log10 of the molar value.
Class 1 (yes): pIC50 at least 6. Class 0 (no): pIC50 below 6.

1. COc1cc2nc(C)nc(NC(C)c3ccc(-c4ccc(C5CC5)cc4CN(C)C)s3)c2cc1OC (centres unmarked) : 1 (yes)

query: Decide: is the reported value of pIC50 for Cc1nc(NC(C)c2ccc(-c3ccccc3CN(C)C)s2)c2cc([N+](=O)[O-])ccc2n1 (centres unmarked) equal to or greater than 6?
result: 1 (yes)

query: Please indicate if the recorded pIC50 for COc1cc2nc(C)nc(NC(C)c3ccc(-c4ccccc4C(O)c4ccccc4)s3)c2cc1OC (centres unmarked) meets or exceeds 6.
result: 0 (no)

query: I'd appreciate it if you could say whether COc1cc2nc(C)nc(NC(C)c3ccc(-c4ccc(Cl)cc4CN)s3)c2cc1OC (centres unmarked) has pIC50 at least equal to 6.
result: 1 (yes)

query: Threshold query (pIC50 >= 6) on Cc1nc(NC(C)c2ccc(Br)s2)c2cc(N3CCN(Cc4cccnc4)CC3)ccc2n1 (centres unmarked)
result: 0 (no)

query: Record Cc1nc(NC(C)c2ccc(-c3ccccc3CN(C)C)s2)c2cc(N3CCN(C)C(=O)C3)ccc2n1 (centres unmarked) ; criterion: pIC50 no lower than 6. Met?
result: 1 (yes)

Attribution: patent US20240083857A1
